PROTOCOL DESCRIPTION: modulators of CIT2-GFP expression in yeast, confirmation, S. cerevisiae, GFP fusion, cherry picks, mother/daughter gates (AID 2274)
CONDITION PARAMETERS: S. cerevisiae CIT2-GFP strain, flow cytometry, 3 h; measured here: daughter cell gate; at 10 µM; stronger effect = higher value
PROPERTY MEASURED: GFP response, % of DMSO

MOLECULE: COc1ccc(NC(=S)NCCCCCC(=O)C[N+](=O)[O-])cc1
RESULT: 101%
//
MOLECULE: CCN(CC)c1ccc(/C=C/c2ccc3ccc(OC)cc3[n+]2CC)cc1
RESULT: 110%
//
MOLECULE: COc1cccc(NC(=O)/C=C/c2ccc([N+](=O)[O-])cc2)c1
RESULT: 90.2%
//
MOLECULE: CCOC(=O)c1cc2c(=O)n3ccccc3nc2n(CCOC)c1=NC(=O)C(C)(C)C
RESULT: 93.8%
//
MOLECULE: C/C(=N\Nc1ncnc2sc(C)c(C)c12)c1ccccn1
RESULT: 118%
//
MOLECULE: COc1cccc(N=Nc2ccc3cccnc3c2O)c1
RESULT: 103%
//
MOLECULE: Oc1ccccc1/C=N/c1c(-c2ccco2)nc2ccccn12
RESULT: 99.7%
//
MOLECULE: Cc1ccc(Sc2ncnc3onc(C)c23)cc1
RESULT: 105%
//
MOLECULE: Oc1ccc(/C=N/Nc2nc(-c3cccnc3)nc3ccccc23)c(O)c1
RESULT: 108%
//
MOLECULE: COC(=O)COc1ccc(S(=O)(=O)N2CCc3ccccc3C2)cc1
RESULT: 96.5%
//
MOLECULE: O=C1/C(=C\c2ccc(O)c(O)c2)SC(=S)N1Cc1ccccc1
RESULT: 119%
//
MOLECULE: COc1ccc(S(=O)(=O)NCC(=O)N(CC(=O)NCc2ccco2)Cc2ccc(F)cc2)cc1
RESULT: 105%
//
MOLECULE: N#C/C(=C\c1c(N(Cc2ccccc2)Cc2ccccc2)nc2ccccn2c1=O)C(N)=O
RESULT: 101%
//
MOLECULE: Cc1ccc(/C=C2/SC(=S)N(C3CCCCC3)C2=O)o1
RESULT: 101%
//
MOLECULE: Cc1ccc(C2=NN(S(C)(=O)=O)C(c3ccc4c(c3)OCO4)C2)cc1 (stereo unspecified)
RESULT: 130%
//
MOLECULE: CCc1nnc(N2C(=O)c3cccc4cccc(c34)C2=O)s1
RESULT: 101%
